assay: non-covalent RecA intein splicing inhibitors, dose response, biochemical, cell-free, fluorescence, secondary screen (AID 449750)
Calls of active or inactive are those of the source. No rule for the calls is given here.
Response enum: active, inactive

compound=CCOc1ccc(Cl)cc1C(c1c(C)[nH][nH]c1=O)c1c(C)[nH][nH]c1=O grouplabel=active
compound="CC1(S(=O)(=O)O)CC(=O)c2ccccc2C1=O (stereo unspecified)" grouplabel=active
compound=Cc1noc(C)c1COC(=O)Cc1ccc(Br)cc1 grouplabel=inactive
compound=CCC(CC)C(=O)NCc1ccc2c(c1)cc(C)n2C grouplabel=inactive
compound=O=C(Nc1ccccc1N(C(=O)c1ccco1)S(=O)(=O)c1cccs1)c1ccco1 grouplabel=active
compound=C[C@@H]1CC=C[C@H]2[C@H]1C(=O)N(Cc1ccccc1)[C@H]2c1ccc(F)c(Br)c1 grouplabel=active
compound=Cn1nc([N+](=O)[O-])nc1Sc1nnc(-c2ccccc2)o1 grouplabel=inactive
compound=O=C(N/N=C/c1ccc([N+](=O)[O-])o1)c1ccc(O)cc1 grouplabel=inactive

Record request — test call for CCOC(=O)c1nnc(-c2ccccc2)nc1Sc1c(Cl)cccc1Cl inactive

Record request — test call for C/C(CC(=O)Nc1ccc(F)cc1)=N\NC(=O)COc1ccccc1 inactive

Record request — test call for O=C(Oc1ccc(-n2cnnn2)cc1)c1ccco1 inactive

* * *

experiment: non-covalent RecA intein splicing inhibitors, dose response, biochemical, cell-free, fluorescence, secondary screen (AID 449750)
Active and inactive are the calls of the source. How the calls were made is not given here.
# AC50 listing for each entry below

Worked set:
compound="O=C(NC1CCCCC1)C(c1cccnc1)N(C(=O)CCl)c1cccc(Cl)c1 (stereo not given)" result="3 µM"
compound=Cc1ccc(S(=O)(=O)N(C(=O)c2ccncc2)c2ccc(OC(=O)c3ccncc3)c3ccccc23)c(C)c1 result="16.9 µM"
compound=CN1C(=O)C(Cc2ccc3c(c2)OCO3)C(=O)N(C)C1=O result="> 38 µM (inactive)"
compound=O=c1[nH]c(O)c(N=Nc2cc([N+](=O)[O-])ccc2O)c(=O)[nH]1 result="2.29 µM"

Turning now to a further compound:
Note down AC50 recorded for COc1cc(C2C(C#N)=C(N)Oc3n[nH]c(C)c32)ccc1OC(=O)c1ccccc1 (stereo not given) > 38 µM (inactive)

* * *

# AC50 listing for each entry below
experiment: non-covalent RecA intein splicing inhibitors, dose response, biochemical, cell-free, fluorescence, secondary screen (AID 449750)
Activity calls are given as the source filed them. The rule behind the calls is not given here.

Note down AC50 recorded for COc1ccc(-c2oc(NC(=O)CCl)c(C#N)c2-c2ccc(OC)cc2)cc1 1.55 µM

Note down AC50 recorded for Cc1cccc(Cn2nnc3c2C(=O)c2ccccc2C3=O)c1 28.7 µM

Note down AC50 recorded for CN(C(=O)c1cccc(COc2ccc(Cl)cc2Cl)c1)c1ccccc1 > 38 µM (inactive)

* * *

assay: non-covalent RecA intein splicing inhibitors, dose response, biochemical, cell-free, fluorescence, secondary screen (AID 449750)
Activity calls are given as the source filed them. The rule behind the calls is not given here.
Response enum: True = active, False = inactive

Study these solved cases before continuing.
compound="COc1ccc(-c2[nH]nc3c2C(c2ccncc2)C(C#N)=C(N)O3)cc1 (stereo not given)" grouplabel=True
compound=CC(C)N(CC(=O)Nc1ccc(Cl)cc1C(F)(F)F)C(=O)CCl grouplabel=True
compound=CN(C)c1ccc(C(=O)n2nnc3ccccc32)cc1 grouplabel=False
compound=CCCCCC(=O)O[C@]1(C(C)=O)CC[C@H]2[C@@H]3CCC4=CC(=O)CC[C@]4(C)[C@H]3CC[C@@]21C grouplabel=True
compound=Cc1[nH]n(-c2ccccc2)c(=O)c1C(c1cccc([N+](=O)[O-])c1)c1c(C)[nH]n(-c2ccccc2)c1=O grouplabel=True
compound=Cc1nnc(N/N=C/c2ccccc2O)n1N grouplabel=True
compound=CCc1ccc(Nc2n[n+](-c3ccccc3)c(-c3c(Cl)cccc3Cl)s2)cc1 grouplabel=True
compound="Cc1nn(-c2ccccc2)c2c1C(c1cccs1)C(C#N)=C(N)O2 (stereo not given)" grouplabel=True
compound=C/C(CC(=O)Nc1ccccn1)=N\NC(=O)Cc1cccc2ccccc12 grouplabel=True
compound=Cn1c(=O)c([N+](=O)[O-])c(-n2cnc3ccccc32)c2ccccc21 grouplabel=False

Record request — test call for COc1ccc(CN(CCC(c2ccccc2)c2ccc(OC(C)C)cc2)C(=O)CCl)cc1OC (stereo not given) True

Record request — test call for COc1cc(/C=C(\C#N)C(=O)Nc2ccc3c(c2)OCCO3)ccc1O False

Record request — test call for Cc1ccc(NC(=O)c2nc(S(=O)(=O)Cc3ccccc3)ncc2Cl)cc1 False

Record request — test call for CCN(CC)C(=O)c1ccc2c(c1[N+](=O)[O-])C(=O)c1ccccc1C2=O False

Record request — test call for Cn1c(SCC(=O)NCC2CCCO2)ncc(C(=O)Nc2ccccc2)c1=O (stereo not given) False

Record request — test call for Cc1ccc(C2C(C#N)=C(N)Oc3nc(-c4ccccc4)[nH]c32)o1 (stereo not given) False

Record request — test call for Cc1cc(C)cc(Cn2ncc(Cl)c(Cl)c2=O)c1 True
